- testedTarget: T1, Human Siglec-9 mutant M10 (human, UniProt Q9Y336 18-463)
- T1 construct: Expressed on HEK293T cells; also called Mutant 10
- T1 sequence (Q9Y336 other isoform, or with tags, fused parts or gaps mutant): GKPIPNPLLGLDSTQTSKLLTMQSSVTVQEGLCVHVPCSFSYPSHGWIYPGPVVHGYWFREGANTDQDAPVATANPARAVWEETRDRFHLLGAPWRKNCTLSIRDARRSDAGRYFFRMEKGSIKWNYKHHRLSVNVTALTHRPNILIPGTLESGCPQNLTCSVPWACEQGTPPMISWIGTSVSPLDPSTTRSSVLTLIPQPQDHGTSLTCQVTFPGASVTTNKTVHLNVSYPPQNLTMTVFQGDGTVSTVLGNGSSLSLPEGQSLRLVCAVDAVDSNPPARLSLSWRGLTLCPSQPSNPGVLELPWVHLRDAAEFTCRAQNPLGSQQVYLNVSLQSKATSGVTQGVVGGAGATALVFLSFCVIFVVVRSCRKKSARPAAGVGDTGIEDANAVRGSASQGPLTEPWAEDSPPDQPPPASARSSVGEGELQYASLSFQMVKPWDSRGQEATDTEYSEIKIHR
- experimentSummary: flow cytometry, HEK293T transfectants

binder	binding result
mAbC (antibody, human IgG1, V domains shown) VH: QIQLVQSGPELKKPGETVKISCKASGYTFTNYEMNWVKEAPGKGLKWMGWINTYTGESTYADDFKGRFAFSLETSASTVYLQINNLKDEDVATYFCVRDDYGRSYGFAYWGQGTLVTVSA VL: NIVLTQSPASLTVSLGQRANISCRASESVDSYGNSFMHWYQQKPGQPPKLLIYLASKLESGVPARFSGSGSRTDFTLTIDPVETDDAATYYCHQNNEDPPWTFGGGTKLEIK	binds
mAbB (antibody, human IgG1, V domains shown) VH: QVQLQQPGAELVKPGASVKLSCKASVYTFTSYWMHWVKQRPGQGLEWIGEINPSNGHTNYNEKFKTKAKLTVDKSSSTAYMQLSSLTSEDSAVYFCANGVETYDFDDAMDYWGQGTSVTVSS VL: DIQMTQTTSSLSASLGDRVTISCRASQDINNYLNWYQQKPDGTVKLLIYFTSRLHSGVPSRFSGSGSGTDYSLTISNLEQEDIATYFCQQGDTFPFTFGGGTKLEIK	binds
mAbD (antibody, human IgG1, V domains shown) VH: QIQLVQSGPELKKPGETVKISCKASGYTFTDYSMHWVKQAPGKGLKWMGWIITETGEPTYADDFRGRFAFSLETSANTAYLQINNLKNEDTATYFCARDFDGYWGQGTTLTVSS VL: DILMTQSPASLSASVGETVTITCRASENIYSYLAWYQQKRGKSPQFLVYNAKTLTEGVPSRFRGSGSGTQFSLKINSLQPEDFGTYYCQHHYGFPWTFGGGTKLEIK	binds
